assay.comment: solvent given as SMILES
reported.conditions: in ClC(Cl)Cl
readout.type: absorption maximum (nm)
Give the value in nm but do not write nm after it.

CCCCCCN1C(=O)c2cccc3c(-c4ccc(-c5ccc(-c6ccc7c8c(cccc68)C(=O)N(CCCCCC)C7=O)s5)s4)ccc(c23)C1=O    428
CC(=O)OCCN1C(=O)c2cccc3c(Oc4ccccc4C)ccc(c23)C1=O    352

Record c1ccc2c(c1)ccc1ccc3ccc4ccccc4c3c12 . Reported absorption maximum: 393

Record CO[B-]1(OC)n2c(C)cc(C)c2C(c2ccc(I)cc2)=C2C(C)=CC(C)=[N+]21 . Reported absorption maximum: 505

Record CN(C)c1[se]c(-c2ccc(Cl)cc2)nc1-c1ccccc1 . Reported absorption maximum: 360

Record c1ccc(-c2cc(-c3ccc(-c4nc(-c5ccccn5)c(-c5ccccn5)[nH]4)cc3)cc(-c3ccccn3)n2)nc1 . Reported absorption maximum: 408

* * *

assay.comment: solvent given as SMILES
reported.conditions: in CO
Threshold check on absorption maximum: at or above 500 nm gives 1 (yes), strictly below gives 0 (no).

Sample answers from the record:
COc1ccc(O)cc1C=O    0 (no)
CN(C)c1ccc(/C=C/c2ccc(-c3nnc(-c4ccc(-c5cc6ccccc6s5)cc4)o3)cc2)cc1    0 (no)
Cc1ccc(-n2c(-c3ccc(C(F)(F)F)cc3)nc(-c3ccccc3O)c2-c2ccccc2O)cc1    0 (no)
COc1cccc(-c2nc(-c3ccccc3)c(-c3ccccc3)[nH]2)c1    0 (no)
Cc1ccc(/C=C/c2nc3ccccc3s2)cc1    0 (no)

q: Hello, I need to know if CN(C)/C=N\c1ccc2c3c(cccc13)C(=O)c1ccccc1-2 has measured absorption maximum not below 500 nm. Thanks!
a: 0 (no)

q: Hello, I need to know if CSc1sc(C(=O)c2ccccc2)c2nn[nH]c(=O)c12 has measured absorption maximum not below 500 nm. Thanks!
a: 0 (no)

q: Hello, I need to know if CC1(C)C(/C=C/C2=C(c3ccc(C(=O)O)cc3)C(=C/C=C3/N(CCCCS(=O)(=O)[O-])c4ccccc4C3(C)C)/CCC2)=[N+](CCCCS(=O)(=O)[O-])c2ccccc21 has measured absorption maximum not below 500 nm. Thanks!
a: 1 (yes)

q: Hello, I need to know if CCOC(=O)C1=C(C)NC2=C(C(=O)c3ccccc32)C1c1ccc(N(C)C)cc1 (centres undefined) has measured absorption maximum not below 500 nm. Thanks!
a: 0 (no)

q: Hello, I need to know if c1ccc(N(c2ccccc2)c2ccc(-c3cnc(-c4ccc(N(c5ccccc5)c5ccccc5)cc4)s3)cc2)cc1 has measured absorption maximum not below 500 nm. Thanks!
a: 0 (no)

q: Hello, I need to know if CC1(C)C(/C=C/C2=C(c3ccc(C(=O)O)cc3)C(=C/C=C3/N(CCCCS(=O)(=O)[O-])c4ccccc4C3(C)C)/CC2)=[N+](CCCCS(=O)(=O)[O-])c2ccccc21 has measured absorption maximum not below 500 nm. Thanks!
a: 1 (yes)

q: Hello, I need to know if c1ccc(N(c2ccccc2)c2ccc(-c3ncc(-c4cccs4)s3)cc2)cc1 has measured absorption maximum not below 500 nm. Thanks!
a: 0 (no)

q: Hello, I need to know if COc1ccc2n1[B-](F)(F)[N+]1=C(c3ccccc3)C=CC1=C2c1ccc(C)cc1 has measured absorption maximum not below 500 nm. Thanks!
a: 1 (yes)

q: Hello, I need to know if C#CCOc1ccc(C2=[N+]3C(=Nc4c(-c5ccccc5)cc(-c5ccc(O)cc5)n4[B-]3(F)F)C(c3ccccc3)=C2)cc1 has measured absorption maximum not below 500 nm. Thanks!
a: 1 (yes)

q: Hello, I need to know if CCCCN1C(=O)C(=C/C=C/C=C/C=C2N(CCCC)c3ccccc3N2CCCC)C(=O)N(CCCC)C1=S has measured absorption maximum not below 500 nm. Thanks!
a: 0 (no)

q: Hello, I need to know if O=C1C=C(Nc2ccc(F)cc2[N+](=O)[O-])C(=O)c2ccccc21 has measured absorption maximum not below 500 nm. Thanks!
a: 0 (no)

q: Hello, I need to know if CCCSC1=[N+]2C(=C(c3ccccc3)c3ccc(SCCC)n3[B-]2(F)F)C=C1SC#N has measured absorption maximum not below 500 nm. Thanks!
a: 1 (yes)

* * *

This section presents molecules with their documented absorption maximum values.
assay.comment: solvent given as SMILES
reported.conditions: in CCOCC
Give the value in nm but do not write nm after it.

Worked cases, absorption maximum given:
c1ccc2cc(-n3c4ccccc4c4ccccc43)ccc2c1    319
CN(C)c1ccc(/C=C/c2nc3ccccc3s2)cc1    390
CN(C)c1ccc(C(=O)Nc2ccc([N+](=O)[O-])cc2)cc1    345

Record CN(C)c1ccc(-c2cc(-c3ccc(C#N)cc3)nn2C)cc1 . Reported absorption maximum: 289

Record c1ccc(-c2nc(-c3ccc(-c4nc(-c5ccccc5)c(-c5ccccc5)[nH]4)s3)[nH]c2-c2ccccc2)cc1 . Reported absorption maximum: 384

Record COc1ccc(/C=C/C2=[O+][B-](F)(F)OC(/C=C/c3ccc(OC)cc3)=C2c2ccccc2)cc1 . Reported absorption maximum: 491

Record O=c1c(Nc2ccccc2)c([O-])c1=[NH+]c1ccccc1 . Reported absorption maximum: 400

Record CC(C)(C)c1ccc(-c2nc3c4ccccc4c4ccccc4c3n2-c2ccc(C(C)(C)C)cc2)cc1 . Reported absorption maximum: 313

Record N#Cc1ccc(-c2ccc3c(c2)c2cc(-c4ccc(C#N)cc4)ccc2c2c3nc(-c3ccc(-c4ccc(N(c5ccccc5)c5ccccc5)cc4)cc3)n2-c2ccccc2)cc1 . Reported absorption maximum: 366.21

* * *

assay.comment: solvent given as SMILES
reported.conditions: in CS(C)=O
This section presents compounds with their documented absorption maximum values.
Give the value in nm but do not write nm after it.

O=c1oc2ccc(Cl)cc2cc1-c1cc2cc(Cl)ccc2o1    373
CCCCN1C(=S)c2cccc3c(OC)ccc(c23)C1=S    483

# evaluate next
Record O=C1/C(=C2\Sc3ccc(S(=O)(=O)Cl)cc3C2=O)Sc2ccc(S(=O)(=O)Cl)cc21 . Reported absorption maximum: 553

* * *

assay.comment: solvent given as SMILES
reported.conditions: in CC#N
readout.type: absorption maximum (nm)
Give the value in nm but do not write nm after it.

c1ccc(-c2nc3nc4ccccc4nc3n2-c2ccccc2)cc1    348
Cc1ccc(-c2sc(/C(C#N)=C/c3ccc(C#N)cc3)nc2-c2ccc(Cl)cc2)cc1    383
COC(=O)c1cc(=O)n(C)c2cc(-c3ccccc3OC)sc12    396

Record CCCCCCCCCCCCCCCCOC(=O)c1ccc(N(c2ccccc2)c2ccccc2)cc1 . Reported absorption maximum: 332

Record c1ccc(-c2nc(-c3ccc(N(c4ccccc4)c4ccccc4)cc3)n3ccccc23)cc1 . Reported absorption maximum: 350

* * *

assay.comment: solvent given as SMILES
reported.conditions: in ClCCl
This section presents compounds with their documented absorption maximum values.
The reply must contain the numeric value and, after it, the unit.

Record Cc1cccc(C)c1N1C(c2ccccc2)=Cc2cccc[n+]2[B-]1(F)F . Reported absorption maximum: 397 nm

Record c1ccc(-c2nc(-c3ccccc3)n3ccccc23)cc1 . Reported absorption maximum: 385 nm

Record CCCCC(CC)Cn1c2cc(C#N)ccc2c2ccc(C#Cc3ccc4ccc5c(C#Cc6ccc7c8ccc(C#N)cc8n(CC(CC)CCCC)c7c6)cc(C#Cc6ccc7c8ccc(C#N)cc8n(CC(CC)CCCC)c7c6)c6ccc3c4c56)cc21 (configuration not stated) . Reported absorption maximum: 447 nm

Record Cc1ccc(N(c2ccc(C)cc2)c2ccc(-c3ccc4c(c3)C(=O)c3ccccc3C4=O)cc2)cc1 . Reported absorption maximum: 476 nm

Record COc1cccc(/C=C/C(=O)c2c(O)cc(C)oc2=O)c1 . Reported absorption maximum: 377 nm

Record CC(C)(C)c1cc(-c2cc3c(cc(-c4cc(C(C)(C)C)cc(C(C)(C)C)c4)n3-c3ccc(C(=C(c4ccccc4)c4ccccc4)c4ccccc4)cc3)n2-c2ccc(C(=C(c3ccccc3)c3ccccc3)c3ccccc3)cc2)cc(C(C)(C)C)c1 . Reported absorption maximum: 337 nm

Record CCCCCCCCCCCCN1C(=O)c2c(c3ccc4cc(-c5ccc(F)cc5)c(OC)cc4c3c3c2ccc2cc(-c4ccc(F)cc4)c(OC)cc23)C1=O . Reported absorption maximum: 431 nm

Record C[Si]1(C)c2ccccc2-c2ccccc21 . Reported absorption maximum: 336 nm

Record Cc1cc(-c2ccc(N(c3ccccc3)c3ccccc3)cc2)c2nsnc2c1-c1ccc(N(c2ccccc2)c2ccccc2)cc1 . Reported absorption maximum: 432 nm

Record COc1ccc(C2=C3C(/C=C/c4cc(OC)c(OC)c(OC)c4)=C(C=O)C(/C=C/c4cc(OC)c(OC)c(OC)c4)=[N+]3[B-](F)(F)n3c(/C=C/c4cc(OC)c(OC)c(OC)c4)c(C=O)c(C=Cc4cc(OC)c(OC)c(OC)c4)c32)cc1 . Reported absorption maximum: 688 nm

Record Cc1ccc(-c2cc(-c3ccccc3)c3c(N)nc(N4CCCC4)c(C#N)c3n2)cc1 . Reported absorption maximum: 420 nm

Record CC1=NN(c2ccccc2)C(=O)/C1=C/c1cn(-c2ccccc2)nc1-c1ccccc1 . Reported absorption maximum: 368 nm

Record CC(C)(C)c1ccc2c(c1)c1cc(C(C)(C)C)ccc1n2-c1ccc(C#Cc2ccc(C#Cc3ccc(C=C(C#N)C#N)cc3)cc2)cc1 . Reported absorption maximum: 382 nm

Record CCOC(=O)c1ccccc1-c1c2ccc(=[N+](CC)CC)cc-2oc2c1oc1cc(N)ccc12 . Reported absorption maximum: 587 nm

Record COc1ccc2cc(-c3ccc([N+](=O)[O-])cc3)ccc2c1 . Reported absorption maximum: 345 nm

Record CCC[n+]1ccc(/C=C/c2ccc(N(C)C)cc2)cc1 . Reported absorption maximum: 513 nm

Record CC(=O)c1c(N[C@@H](Cc2ccccc2)C(=O)O)c2ccc(N(C)C)cc2oc1=O . Reported absorption maximum: 374 nm

Record CN(c1ccccc1)c1ccc(N(c2ccccc2)c2ccc3ccc4c(N(c5ccccc5)c5ccc(N(C)c6ccccc6)cc5)ccc5ccc2c3c54)cc1 . Reported absorption maximum: 435 nm

Record c1ccc2c(C3=C(c4cccc5ccccc45)c4cccc5c4c(cc4nc6ccccc6nc45)O3)cccc2c1 . Reported absorption maximum: 486 nm

Record CCCCCN1c2ccccc2Sc2cc(/C=C/c3ccc(/C=C(\C#N)C(=O)O)s3)ccc21 . Reported absorption maximum: 494 nm

Record F[B-]1(F)n2c(c(-c3ccccc3)c3ccccc32)C(c2ccccc2)=C2C(c3ccccc3)=c3ccccc3=[N+]21 . Reported absorption maximum: 568 nm
